Values from patent US20170183306A1

System: HeLa-p4 cells
Experiment: Cell viability assay (MTS) on HeLa-p4 cells
Type: cell-based
Settings: 50 μM; cell viability
Below, each entry is listed with its recorded Hela-p4 MTS 50 μM.
Write the number on its own, no unit after it.

Answered cases to consult:
COc1cccc(CCN2C[C@H](NC(C)=O)C[C@H](NC(C)=O)C2)c1    111
COc1cccc(CCN2C[C@H](NS(C)(=O)=O)C[C@H](NS(C)(=O)=O)C2)c1    96
CC(C)(C)OC(=O)N[C@@H]1C[C@H](NC(=O)OC(C)(C)C)CN(S(=O)(=O)c2ccccc2)C1    91
N[C@@H]1C[C@H](N)CN(CCc2ccc3c(c2)OCO3)C1    97
COC(=O)N[C@@H]1C[C@H](NC(=O)OC)CN(CCc2cccc(OC)c2)C1    101
N[C@@H]1C[C@H](N)CN(c2ccc3c(c2)OCO3)C1    85
CC(C)(C)OC(=O)N[C@@H]1C[C@H](NC(=O)OC(C)(C)C)CN(Cc2ccc(N3CCCC3)cc2)C1    95

Let us examine a further case.
Annotate the molecule CC(C)(C)OC(=O)N[C@@H]1CNC[C@H](NC(=O)OC(C)(C)C)C1 with its measured Hela-p4 MTS 50 μM.
95

---

Test system: HeLa-p4 cells
Assay: Cell viability assay (MTS) on HeLa-p4 cells
Type: cell-based
Conditions: 50 μM; cell viability
Label class 1 when Hela-p4 MTS 50 μM < 90; otherwise class 0.

Worked examples, 7 molecules total:
N[C@@H]1C[C@H](N)CN(c2ccc(NC(=O)c3ccccc3)cc2)C1 [ECO03-002-C]    class 0
N[C@@H]1CNC[C@H](N)C1 [ECO01-025-C2, piperidine-3,5-diamine]    class 0
COC(=O)[C@@H](Cc1ccccc1)N1C[C@H](N)C[C@H](N)C1 [AB-109 F3]    class 0
COc1ccc(CCN2C[C@H](N)C[C@H](N)C2)cc1OC [AB-77]    class 0
COc1ccc(-c2ccc(N3C[C@H](N)C[C@H](N)C3)cc2)cc1 [ECO02-029-C]    class 1
N[C@@H]1C[C@H](N)CN(c2ccc(C(=O)N3CCCCCC3)cc2)C1 [ECO02-007-C]    class 0
COc1ccc2c(CN3C[C@H](NC(=O)OC(C)(C)C)C[C@H](NC(=O)OC(C)(C)C)C3)cn(C)c2c1 [ECO02-060-C]    class 1

Moving on to another molecule below.
Could you please tell me whether Hela-p4 MTS 50 μM recorded for COc1ccc(N2C[C@H](N)C[C@H](N)C2)cc1 [ECO01-056-C] is less than 90?
class 1

---

Tested on: HeLa-p4 cells
Assay: Cell viability assay (MTS) on HeLa-p4 cells
Format: cell-based
Details: 50 μM; cell viability
Structures can show the parent of a compound that is named as a salt.
Below, each entry is listed with its recorded Hela-p4 MTS 50 μM.
Write the number on its own, no unit after it.

N[C@@H]1C[C@H](N)CN(Cc2ccccc2)C1 [ECO02-063-C, trihydrochloride]    108
COc1ccc(CC(=O)N2C[C@H](N)C[C@H](N)C2)cc1OC    103
N[C@H]1CC(OCc2cn(CC(=O)c3cc4ccc3CCc3ccc(cc3)CC4)nn2)[C@@H](N)C1 (stereo partly drawn)    108
COc1ccc2[nH]cc(CCN3C[C@H](N)C[C@H](N)C3)c2c1    62
CN(C)c1ccc(CN2C[C@H](N)C[C@H](N)C2)cc1    99

Annotate the compound COc1ccc(CN2C[C@H](N)C[C@H](N)C2)cc1 with its measured Hela-p4 MTS 50 μM.
98

Annotate the compound CC(C)(C)OC(=O)N[C@@H]1C[C@H](NC(=O)OC(C)(C)C)CN(Cc2ccccc2)C1 with its measured Hela-p4 MTS 50 μM.
67

Annotate the compound CC(C)N1C[C@H](N)C[C@H](N)C1 with its measured Hela-p4 MTS 50 μM.
100

Annotate the compound N[C@@H]1C[C@H](N)CN(CCCc2ccccc2)C1 with its measured Hela-p4 MTS 50 μM.
105

Annotate the compound N[C@@H]1C[C@H](N)CN(c2ccccc2)C1 with its measured Hela-p4 MTS 50 μM.
97

Annotate the compound CCOc1ccc(CCN2C[C@H](N)C[C@H](N)C2)cc1 with its measured Hela-p4 MTS 50 μM.
106

Annotate the compound N[C@@H]1C[C@H](N)CN(CCc2ccc(O)cc2)C1 with its measured Hela-p4 MTS 50 μM.
100

Annotate the compound N[C@@H]1C[C@H](N)CN(c2cccc(C(=O)Nc3ccccc3)c2)C1 with its measured Hela-p4 MTS 50 μM.
105

Annotate the compound COc1ccc(CCN2C[C@H](N)C[C@H](N)C2)cc1 with its measured Hela-p4 MTS 50 μM.
112

Annotate the compound N[C@@H]1C[C@H](N)CN(CCc2ccccc2)C1 with its measured Hela-p4 MTS 50 μM.
100

Annotate the compound N[C@@H]1C[C@H](N)CN(c2ccc(NC(=O)c3ccccc3)c(O)c2)C1 with its measured Hela-p4 MTS 50 μM.
94

Annotate the compound Cc1ccccc1CCN1C[C@H](N)C[C@H](N)C1 with its measured Hela-p4 MTS 50 μM.
91

Annotate the compound CC(O)c1ccc(C(=O)NC(CCCCN)C(=O)N2C[C@H](N)C[C@H](N)C2)cc1 (stereo partly drawn) with its measured Hela-p4 MTS 50 μM.
103
